- Protocol Summary: Plasma pharmacokinetics in macaques, 1 and 7 days oral administration
- Type: in vivo
- Applied Conditions: female, monkey, plasma, po, 5.34 g/kg/day, macaque plasma; 5.34 g/kg/day p.o.; Day 7
Attribute Measured: Tmax (min)
Give bare numbers, in min.

Reported Tmax, compound `OC[C@H]1O[C@H](O[C@H]2O[C@H](CO)[C@@H](O)[C@H](O)[C@H]2O)[C@H](O)[C@@H](O)[C@@H]1O` : ____
49.8

---

- Protocol Summary: Plasma, brain and CSF trehalose levels in macaques after 17 weeks administration
- Format: in vivo, cynomolgus monkeys (Macaca fascicularis)
- Applied Conditions: female, cynomolgus monkey, CSF, po, 2.67 g/kg/day p.o. 17 weeks, 1 h after final administration, read-out: CSF trehalose level
Attribute Measured: concentration at 1 h
Respond with a number, then the unit of measure.

Reported concentration at 1 h, molecule `OC[C@H]1O[C@H](O[C@H]2O[C@H](CO)[C@@H](O)[C@H](O)[C@H]2O)[C@H](O)[C@@H](O)[C@@H]1O` : ____
33 ng/mL
